# System: VRE
# MEASUREMENT_NOTES: Broth microdilution MIC, Example 7 (NCL812 and analogues)
# Assay type: cell-based, Enterococcus spp.
# RUN_CONDITIONS: VRE 1; 24 hours; duplicate lines per compound
Catalogue of MIC (μg/ml) at 24 hours, VRE 1 readings, one per entry.
ASSAY_READOUT: MIC (μg/ml) at 24 hours, VRE 1

MOLECULE	TARGET_UNDER_TEST	ASSAY_READOUT	TEST_VALUE
Cc1ccc(C=NNC(=N)NN=Cc2ccc(Cl)cc2)cc1.Cl	VRE	MIC (μg/ml) at 24 hours, VRE 1	>128 µg/mL
Cl.N=C(NN=Cc1ccc(O)c([N+](=O)[O-])c1)NN=Cc1ccc(O)c([N+](=O)[O-])c1	VRE	MIC (μg/ml) at 24 hours, VRE 1	>128 µg/mL
C/C(=N\NC(=N)N/N=C/c1ccc(C(F)(F)F)cc1)c1ccc(C(F)(F)F)cc1.Cl	VRE	MIC (μg/ml) at 24 hours, VRE 1	>128 µg/mL
COc1cc(Br)c(C=NNC(=N)NN=Cc2cc(OC)c(OC)cc2Br)cc1OC.Cl	VRE	MIC (μg/ml) at 24 hours, VRE 1	>128 µg/mL
Cl.N=C(N/N=C/c1ccc2ccccc2c1)N/N=C/c1ccc2ccccc2c1	VRE	MIC (μg/ml) at 24 hours, VRE 1	64 µg/mL
Cl.N=C(N/N=C/c1ccc(Br)cc1)N/N=C/c1ccc(Br)cc1	VRE	MIC (μg/ml) at 24 hours, VRE 1	>128 µg/mL
Cl.N=C(NN=Cc1cccc(O)c1O)NN=Cc1cccc(O)c1O	VRE	MIC (μg/ml) at 24 hours, VRE 1	64 µg/mL
Cl.N=C(NN=CC(=Cc1ccccc1)c1ccccc1)NN=CC(=Cc1ccccc1)c1ccccc1	VRE	MIC (μg/ml) at 24 hours, VRE 1	>128 µg/mL
CC(O)Nc1cc(Cl)ccc1C=NNC(=N)NN=Cc1ccc(Cl)cc1NC(C)O.Cl (stereo not shown)	VRE	MIC (μg/ml) at 24 hours, VRE 1	64 µg/mL
Cl.N=C(NN=Cc1cnc2ccccc2c1)NN=Cc1cnc2ccccc2c1	VRE	MIC (μg/ml) at 24 hours, VRE 1	>128 µg/mL
Cl.N=C(NN=Cc1cc(Cl)cc(Cl)c1)NN=Cc1cc(Cl)cc(Cl)c1	VRE	MIC (μg/ml) at 24 hours, VRE 1	>128 µg/mL
Cl.N=C(N/N=C/c1ccccc1O)N/N=C/c1ccccc1O	VRE	MIC (μg/ml) at 24 hours, VRE 1	32 µg/mL
CC(C)(C)c1ccc(C=NNC(=N)NN=Cc2ccc(C(C)(C)C)cc2)cc1.Cl	VRE	MIC (μg/ml) at 24 hours, VRE 1	8 µg/mL
Cl.N=C(NN=Cc1cnc2ccccc2n1)NN=Cc1cnc2ccccc2n1	VRE	MIC (μg/ml) at 24 hours, VRE 1	>128 µg/mL
Cl.N=C(NN=Cc1ccc(OC(F)(F)F)cc1)NN=Cc1ccc(OC(F)(F)F)cc1	VRE	MIC (μg/ml) at 24 hours, VRE 1	16 µg/mL
Cl.N=C(NN=Cc1ccc(Cl)cc1)NN=Cc1ccccc1F	VRE	MIC (μg/ml) at 24 hours, VRE 1	4 µg/mL
Cl.N=C(NN=CC1=C(Cl)c2cc(F)ccc2OC1)NN=CC1=C(Cl)c2cc(F)ccc2OC1	VRE	MIC (μg/ml) at 24 hours, VRE 1	>128 µg/mL
CCCCc1ccc(C=NNC(=N)NN=Cc2ccc(CCCC)cc2)cc1.Cl	VRE	MIC (μg/ml) at 24 hours, VRE 1	32 µg/mL
Cl.N=C(NN=C(C(=O)O)c1ccccc1)NN=C(C(=O)O)c1ccccc1	VRE	MIC (μg/ml) at 24 hours, VRE 1	>128 µg/mL
FC(F)(F)c1ccc(-c2nnc(Nc3ccc(Cl)cc3)[nH]2)cc1	VRE	MIC (μg/ml) at 24 hours, VRE 1	>128 µg/mL
Cl.N=C(N/N=C/c1ccc(Cl)cc1)N/N=C/c1cccc(Cl)c1	VRE	MIC (μg/ml) at 24 hours, VRE 1	>128 µg/mL
Cl.N=C(N/N=C/c1ccc(Cl)cc1Cl)N/N=C/c1ccc(Cl)cc1Cl	VRE	MIC (μg/ml) at 24 hours, VRE 1	>128 µg/mL
Cl.N=C(NN=Cc1ccc([N+](=O)[O-])cc1)NN=Cc1ccc([N+](=O)[O-])cc1	VRE	MIC (μg/ml) at 24 hours, VRE 1	>128 µg/mL
CC(=NNC(=N)NN=C(C)c1ccc(N2CCNCC2)cc1)c1ccc(N2CCNCC2)cc1.Cl	VRE	MIC (μg/ml) at 24 hours, VRE 1	128 µg/mL
Cl.N=C(NN=Cc1ccc(C=CCC(=O)O)cc1)NN=Cc1ccc(C=CCC(=O)O)cc1	VRE	MIC (μg/ml) at 24 hours, VRE 1	>128 µg/mL
Cl.N=C(N/N=C/c1cccc([N+](=O)[O-])c1)N/N=C/c1cccc([N+](=O)[O-])c1	VRE	MIC (μg/ml) at 24 hours, VRE 1	>128 µg/mL
C/C(=N\NC(=N)N/N=C/c1ccc(Cl)cc1)c1ccc(Cl)cc1.Cl	VRE	MIC (μg/ml) at 24 hours, VRE 1	1 µg/mL
CC(=NNC(=N)NN=C(C)c1ccccc1)c1ccccc1.Cl	VRE	MIC (μg/ml) at 24 hours, VRE 1	8 µg/mL
Cl.N=C(N/N=C/C=C/c1ccccc1)N/N=C/C=C/c1ccccc1	VRE	MIC (μg/ml) at 24 hours, VRE 1	>128 µg/mL
CCC(=NNC(=N)NN=C(CC)c1ccc(Cl)cc1O)c1ccc(Cl)cc1O.Cl	VRE	MIC (μg/ml) at 24 hours, VRE 1	4 µg/mL
CC(=O)Nc1ccc(C=NNC(=N)NN=Cc2ccc(NC(C)=O)cc2)cc1.Cl	VRE	MIC (μg/ml) at 24 hours, VRE 1	>128 µg/mL
COc1ccc(C=CC=NNC(=N)NN=CC=Cc2ccc(OC)cc2)cc1.Cl	VRE	MIC (μg/ml) at 24 hours, VRE 1	>128 µg/mL
Cl.N=C(N/N=C/c1ccc(Cl)cc1)N/N=C/c1ccccc1Cl	VRE	MIC (μg/ml) at 24 hours, VRE 1	4 µg/mL
COc1cc(C=NNC(=N)NN=Cc2cc(O)c(O)c(OC)c2)cc(O)c1O.Cl	VRE	MIC (μg/ml) at 24 hours, VRE 1	>128 µg/mL
CC(=NNC(=N)NN=C(C)c1ccc(Cl)cc1N)c1ccc(Cl)cc1N.Cl	VRE	MIC (μg/ml) at 24 hours, VRE 1	>128 µg/mL
Cl.N=C(N/N=C/c1ccccc1)N/N=C/c1ccccc1	VRE	MIC (μg/ml) at 24 hours, VRE 1	>128 µg/mL
CCC(=NNC(=N)NN=C(CC)c1ccc(Cl)cc1)c1ccc(Cl)cc1.Cl	VRE	MIC (μg/ml) at 24 hours, VRE 1	8 µg/mL
